compounds and their reported IC50
# subject_of_test: purified recombinant human GAC (GLS1) (Homo sapiens (Human))
# protocol_notes: GLS1 Enzymatic Activity Assay (dual-coupled enzymatic assay, resorufin/Amplex UltraRed readout)
reported_endpoint: IC50

INSERT INTO measurements (compound, reported_endpoint, value) VALUES
  ('O=C(Cc1ccccn1)Nc1cn(CCCCn2cc(C(=O)NCC3CCCCC3)nn2)nn1', 'IC50', '500 to 5000 nM'),
  ('O=C(Cc1cccc(OC(F)(F)F)c1)Nc1cn(CCCCn2cc(C(=O)NCc3cc(C(F)(F)F)ccn3)nn2)nn1', 'IC50', '< 100 nM'),
  ('O=C(CC1CCCC1)Nc1cn(CCCCn2cc(C(=O)NCC3CCCCC3)nn2)nn1', 'IC50', '500 to 5000 nM'),
  ('O=C(NCc1ccccn1)c1cn(CC(F)CCc2nnc(C(=O)NCc3cc(C(F)(F)F)ccn3)s2)nn1 (centres unmarked)', 'IC50', '< 100 nM'),
  ('C[C@@H](NC(=O)c1cn(CCC(F)Cn2cc(C(=O)NCc3cc(C(F)(F)F)ccn3)nn2)nn1)c1ccccc1 (some centres unmarked)', 'IC50', '100 to 500 nM'),
  ('O=C(Cc1cc(Cl)ccc1F)Nc1cn(CCCCn2cc(C(=O)NCc3cccc(OC(F)(F)F)c3)nn2)nn1', 'IC50', '< 100 nM'),
  ('CC(C)CNC(=O)c1cn(CCCCc2ccc(NC(=O)Cc3ccccc3)nn2)nn1', 'IC50', '< 100 nM'),
  ('CNC(=O)c1cn(C[C@@H](F)CCc2nnc(NC(=O)Cc3cccc(OC(F)(F)F)c3)s2)nn1 [Example 193]', 'IC50', '< 100 nM');

====

# subject_of_test: purified recombinant human GAC (GLS1) (Homo sapiens (Human), UniProt O94925)
# Sequence (O94925 other isoform, or with tags, fused parts or gaps): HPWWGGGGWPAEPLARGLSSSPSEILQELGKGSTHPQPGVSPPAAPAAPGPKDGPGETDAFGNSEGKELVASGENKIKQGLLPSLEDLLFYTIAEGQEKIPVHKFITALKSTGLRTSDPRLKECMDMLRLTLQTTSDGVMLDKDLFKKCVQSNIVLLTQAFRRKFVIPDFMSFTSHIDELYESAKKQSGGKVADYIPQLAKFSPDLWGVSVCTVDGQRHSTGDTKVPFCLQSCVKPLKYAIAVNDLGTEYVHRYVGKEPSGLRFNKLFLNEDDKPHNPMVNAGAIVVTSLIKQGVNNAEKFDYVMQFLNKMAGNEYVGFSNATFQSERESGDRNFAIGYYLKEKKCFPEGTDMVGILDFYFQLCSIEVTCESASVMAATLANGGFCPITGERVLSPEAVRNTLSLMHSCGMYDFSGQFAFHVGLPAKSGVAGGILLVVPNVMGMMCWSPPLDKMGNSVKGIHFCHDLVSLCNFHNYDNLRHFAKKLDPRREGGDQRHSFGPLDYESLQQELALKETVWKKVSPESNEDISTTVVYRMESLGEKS
# protocol_notes: GLS1 Enzymatic Activity Assay (dual-coupled enzymatic assay, resorufin/Amplex UltraRed readout)
molecules and their reported IC50
reported_endpoint: IC50

INSERT INTO results (molecule, value) VALUES
  ('O=C(NCc1cncc(C(F)(F)F)c1)c1cn(CC(F)CCc2nnc(C(=O)NCc3ccc(C(F)(F)F)cn3)s2)nn1 (stereo not drawn)', '< 100 nM'),
  ('CNC(=O)c1cn(CCCCc2ccc(NC(=O)CC3CCOCC3)nn2)nn1', '100 to 500 nM'),
  ('Cc1ccc(CNC(=O)c2cn(CC(F)CCc3nnc(C(=O)NCc4cc(OC(F)(F)F)ccc4F)s3)nn2)cn1 (stereo not drawn)', '< 100 nM'),
  ('O=C(Cc1cc(OC(F)(F)F)ccc1F)Nc1cn(CC(F)CCn2cc(C(=O)NCc3ncccc3F)nn2)nn1 (stereo not drawn)', '< 100 nM'),
  ('O=C(NCc1cccc(OC(F)(F)F)c1)c1cn(CCCCc2nnc(C(=O)NCC3COC3)s2)nn1', '100 to 500 nM'),
  ('O=C(NCc1cccc(OC(F)(F)F)c1)c1cn(CCCCc2nnc(C(=O)NCc3ccc(C(F)(F)F)cn3)s2)nn1', '< 100 nM'),
  ('O=C(NCc1cccc(OC(F)(F)F)c1)c1cn(CCCCn2cc(C(=O)NCc3ccnc(C(F)(F)F)c3)nn2)nn1', '< 100 nM'),
  ('Cc1ccc(CNC(=O)c2cn(CCCCn3cc(NC(=O)Cc4ccccn4)nn3)nn2)cn1', '100 to 500 nM'),
  ('Cc1ccc(CC(=O)Nc2cn(CCCCn3cc(C(=O)NCC4CC4)nn3)nn2)cn1', '500 to 5000 nM'),
  ('O=C(NCc1cncc(C(F)(F)F)c1)c1cn(CCCCn2cc(C(=O)NCC3COC3)nn2)nn1', '500 to 5000 nM'),
  ('O=C(Cc1cccnc1)Nc1ccc(CCCCn2cc(C(=O)NCc3cc(OC(F)(F)F)ccc3F)nn2)nn1', '< 100 nM'),
  ('O=C(Cc1ccccn1)Nc1cn(CCCCn2cc(C(=O)NCC3CCCC3)nn2)nn1', '500 to 5000 nM'),
  ('O=C(NCc1cccc(OC(F)(F)F)c1)c1cn(CCCCn2cc(C(=O)NCC3CCCOC3)nn2)nn1 (stereo not drawn)', '100 to 500 nM'),
  ('O=C(CC1CCCCC1)Nc1cn(CCCCn2cc(C(=O)NCC3CCCC3)nn2)nn1', '500 to 5000 nM'),
  ('O=C(NCc1ccc(C2CC2)nc1)c1cn(CC(F)CCc2nnc(C(=O)NCc3cccc(C(F)(F)F)c3)s2)nn1 (stereo not drawn)', '< 100 nM'),
  ('CNC(=O)c1cn(CC(F)CCc2nnc(NC(=O)Cc3ncc(Cl)cc3F)s2)nn1 (stereo not drawn)', '< 100 nM'),
  ('O=C(NCc1cc(C(F)(F)F)ccn1)c1cn(CCCCn2cc(C(=O)NCC3CCCCC3)nn2)nn1', '100 to 500 nM'),
  ('Cc1ccc(CNC(=O)c2nnc(CCC(F)Cn3cc(C(=O)NCc4cc(OC(F)(F)F)ccc4F)nn3)s2)cn1 (stereo not drawn)', '< 100 nM'),
  ('O=C(Cc1ccccn1)Nc1nnc(CC[C@@H](F)Cn2cc(C(=O)NCc3cc(OC(F)(F)F)ccc3F)nn2)s1', '< 100 nM'),
  ('CNC(=O)c1cn(CCC(F)Cn2cc(C(=O)NCc3cc(C(F)(F)F)ccn3)nn2)nn1 (stereo not drawn)', '100 to 500 nM'),
  ('Cc1ccc(CNC(=O)c2cn(CCC(F)Cn3cc(NC(=O)Cc4cc(OC(F)(F)F)ccc4F)nn3)nn2)cn1 (stereo not drawn)', '< 100 nM'),
  ('N#CCNC(=O)c1cn(CC(F)CCc2nnc(NC(=O)Cc3cccc(OC(F)(F)F)c3)s2)nn1 (stereo not drawn)', '< 100 nM'),
  ('O=C(Cc1cccc(OC(F)(F)F)c1)Nc1cn(CC(F)CCn2cc(C(=O)NCc3ccccn3)nn2)nn1 (stereo not drawn)', '< 100 nM'),
  ('CC(C)(NC(=O)c1cn(CCCCc2nnc(NC(=O)Cc3cccc(OC(F)(F)F)c3)s2)nn1)c1ccccc1', '100 to 500 nM'),
  ('O=C(NCc1cc(C(F)(F)F)ccn1)c1cn(CC(F)CCc2nnc(C(=O)NCC(F)(F)F)s2)nn1 (stereo not drawn)', '100 to 500 nM'),
  ('CNC(=O)c1nnc(CCC(F)Cn2cc(C(=O)NCc3cccc(OC(F)(F)F)c3)nn2)s1 (stereo not drawn)', '< 100 nM'),
  ('O=C(NCc1cccc(F)c1)c1cn(CCCCn2cc(C(=O)NCc3cc(C(F)(F)F)ccn3)nn2)nn1', '100 to 500 nM'),
  ('O=C(NCCC(F)(F)F)c1cn(CC(F)CCc2nnc(C(=O)NCc3cncc(C(F)(F)F)c3)s2)nn1 (stereo not drawn)', '100 to 500 nM'),
  ('CNC(=O)c1cn(CCC(F)Cn2cc(C(=O)NCc3ccc(C(F)(F)F)cn3)nn2)nn1 (stereo not drawn)', '500 to 5000 nM'),
  ('CNC(=O)c1nnc(CCCCn2cc(C(=O)NCc3cc(C(F)(F)F)ccn3)nn2)s1', '500 to 5000 nM');

====

compounds and their reported pIC50
# subject_of_test: purified recombinant human GAC (GLS1) (Homo sapiens (Human), UniProt O94925)
# protocol_notes: GLS1 Enzymatic Activity Assay (dual-coupled enzymatic assay, resorufin/Amplex UltraRed readout);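 further: glutamate from GAC coupled via glutamate oxidase and peroxidase to resorufin, read as fluorescence (ex 530, em 590 nm) kinetically or at 20 min, four-parameter logistic IC50 fit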
pIC50: −log10 of the molar value.
reported_endpoint: pIC50

INSERT INTO assay_data (compound, subject_of_test, value) VALUES
  ('CNC(=O)c1cn(CCCCc2ccc(NC(=O)CC3CCCC3)nn2)nn1', 'purified recombinant human GAC (GLS1) (Homo sapiens (Human), UniProt O94925)', '6.30 to 7.00'),
  ('Cc1ccc(CNC(=O)c2cn(CC(F)CCc3nnc(C(=O)NCc4cccc(OC(F)(F)F)c4)s3)nn2)cn1 (stereo not shown)', 'purified recombinant human GAC (GLS1) (Homo sapiens (Human), UniProt O94925)', '> 7.00'),
  ('O=C(NCc1cc(C(F)(F)F)ccn1)c1cn(CCCCn2cc(C(=O)NCC3CCOC3)nn2)nn1 (stereo not shown)', 'purified recombinant human GAC (GLS1) (Homo sapiens (Human), UniProt O94925)', '5.30 to 6.30'),
  ('O=C(NCc1cccc(OC(F)(F)F)c1)c1cn(CCC(F)Cn2cc(C(=O)NCc3cccc(C(F)(F)F)n3)nn2)nn1 (stereo not shown)', 'purified recombinant human GAC (GLS1) (Homo sapiens (Human), UniProt O94925)', '> 7.00');

====

# subject_of_test: purified recombinant human GAC (GLS1) (Homo sapiens (Human))
# protocol_notes: GLS1 Enzymatic Activity Assay (dual-coupled enzymatic assay, resorufin/Amplex UltraRed readout)
pIC50: −log10 of the molar value.
compounds and their reported pIC50
reported_endpoint: pIC50

INSERT INTO assay_data (compound, subject_of_test, value) VALUES
  ('CNC(=O)c1cn(CC(F)CCc2nnc(NC(=O)Cc3cc(C(F)(F)F)ccn3)s2)nn1 (stereo not drawn)', 'purified recombinant human GAC (GLS1) (Homo sapiens (Human))', '> 7.00'),
  ('O=C(NCc1cccc(N2CCCC2)c1)c1cn(CCCCn2cc(C(=O)NCc3cc(C(F)(F)F)ccn3)nn2)nn1', 'purified recombinant human GAC (GLS1) (Homo sapiens (Human))', '> 7.00'),
  ('O=C(NCc1cc(C(F)(F)F)ccn1)c1cn(CC(F)CCn2cc(C(=O)N[C@@H](CO)c3ccccc3)nn2)nn1 (stereo partly drawn)', 'purified recombinant human GAC (GLS1) (Homo sapiens (Human))', '6.30 to 7.00'),
  ('O=C(NCc1cncc(C(F)(F)F)c1)c1cn(CCC(F)Cn2cc(C(=O)NCc3cccc(OC(F)(F)F)c3)nn2)nn1 (stereo not drawn)', 'purified recombinant human GAC (GLS1) (Homo sapiens (Human))', '> 7.00'),
  ('Cc1ccc(CC(=O)Nc2cn(CCCCn3cc(C(=O)NCC4CCCCC4)nn3)nn2)cn1', 'purified recombinant human GAC (GLS1) (Homo sapiens (Human))', '6.30 to 7.00'),
  ('CC(=O)Nc1ccc(CCC(F)Cn2cc(C(=O)NCc3cc(C(F)(F)F)ccn3)nn2)nn1 (stereo not drawn)', 'purified recombinant human GAC (GLS1) (Homo sapiens (Human))', '> 7.00'),
  ('COCCNC(=O)c1cn(CC(F)CCc2nnc(NC(=O)Cc3cccc(OC(F)(F)F)c3)s2)nn1 (stereo not drawn)', 'purified recombinant human GAC (GLS1) (Homo sapiens (Human))', '> 7.00'),
  ('O=C(Cc1ccccn1)Nc1nnc(CC[C@@H](F)Cn2cc(C(=O)NCc3cc(C(F)(F)F)ccn3)nn2)s1', 'purified recombinant human GAC (GLS1) (Homo sapiens (Human))', '> 7.00'),
  ('CNC(=O)c1nnc(CCCCc2ccc(NC(=O)Cc3cncc(-c4cccc(OC(F)(F)F)c4)c3)nn2)s1', 'purified recombinant human GAC (GLS1) (Homo sapiens (Human))', '> 7.00'),
  ('O=C(Cc1ccccn1)Nc1nnc(CC[C@@H](F)Cn2cc(C(=O)NCc3ccc(C(F)(F)F)cn3)nn2)s1', 'purified recombinant human GAC (GLS1) (Homo sapiens (Human))', '> 7.00'),
  ('O=C(NCc1cc(C2CC2)ccn1)c1cn(CCC(F)Cn2cc(C(=O)NCc3cccc(OC(F)(F)F)c3)nn2)nn1 (stereo not drawn)', 'purified recombinant human GAC (GLS1) (Homo sapiens (Human))', '> 7.00'),
  ('O=C(Cc1cccc(OC(F)(F)F)c1)Nc1nnc(CCC(F)Cn2cc(C(=O)NCC3CC3)nn2)s1 (stereo not drawn)', 'purified recombinant human GAC (GLS1) (Homo sapiens (Human))', '> 7.00'),
  ('O=C(NCc1cc(C(F)(F)F)ccn1)c1cn(CCCCn2cc(C(=O)NC[C@@H]3CC4CCC3O4)nn2)nn1 (stereo partly drawn)', 'purified recombinant human GAC (GLS1) (Homo sapiens (Human))', '6.30 to 7.00'),
  ('Cc1ccc(CNC(=O)c2cn(CCCCc3nnc(C(=O)NCc4ccccn4)s3)nn2)cn1', 'purified recombinant human GAC (GLS1) (Homo sapiens (Human))', '6.30 to 7.00'),
  ('O=C(NCc1ccc(C(F)(F)F)cn1)c1cn(CCC(F)Cn2cc(C(=O)NCc3cc(C(F)(F)F)ccn3)nn2)nn1 (stereo not drawn)', 'purified recombinant human GAC (GLS1) (Homo sapiens (Human))', '> 7.00');
